system: HT-29 cells (colon carcinoma); assay: MTT cell viability assay, HT-29; format: cell-based; conditions: Homo sapiens; HT-29, 10 µM, 48 h, MTT; read-out: cell viability, percentage of live cells
// viability at 10 µM lookup, one value per entry
The response must be a number in % with no trailing unit.

Read the entry [Se]=C(NCc1nccs1)Nc1ccccc1 [Compound 2a] and write its reported viability at 10 µM.
79.7

---

measured_attribute: melting point (°C)
The response must be a number in °C with no trailing unit.

INSERT INTO assay_data (chemical_string, measured_attribute, value_observed) VALUES
  ('CCCCCCNC(=[Se])Nc1ccccc1', 'melting point', 59),
  ('CCCCNC(=[Se])Nc1ccc(OC)cc1', 'melting point', 89),
  ('CCCCNC(=[Se])Nc1ccc(C#N)cc1', 'melting point', 145),
  ('Clc1ccc(NC(=[Se])NCc2ccco2)cc1', 'melting point', 128),
  ('COc1ccc(NC(=[Se])Nc2ccc3oc(=O)ccc3c2)cc1', 'melting point', 159);

Read the entry N#Cc1ccc(NC(=[Se])Nc2ccc3oc(=O)ccc3c2)cc1 and write its reported melting point.
140

Read the entry Cc1ccc(NC(=[Se])NC23CC4CC(CC(C4)C2)C3)cc1 and write its reported melting point.
169

Read the entry [Se]=C(NCc1nccs1)Nc1ccccc1 and write its reported melting point.
149

Read the entry CCCCNC(=[Se])Nc1ccccc1 and write its reported melting point.
69

Read the entry CCCCCCNC(=[Se])Nc1ccc(Cl)cc1 and write its reported melting point.
110

Read the entry Clc1ccc(NC(=[Se])NC23CC4CC(CC(C4)C2)C3)cc1 and write its reported melting point.
177

---

// viability at 50 µM lookup, one value per entry
system: HTB-54 cells (lung adenocarcinoma); assay: MTT cell viability assay, HTB-54; format: cell-based, human; details: Homo sapiens; HTB-54, 50 µM, 48 h, MTT; read-out: cell viability, percentage of live cells
The response must be a number in % with no trailing unit.

Illustrative cases are given below, each with its answer.
INSERT INTO measurements (chemical_string, target_of_assay, value_observed) VALUES
  ('N#Cc1ccc(NC(=[Se])Nc2ccc3oc(=O)ccc3c2)cc1', 'HTB-54 cells (lung adenocarcinoma)', 17.8),
  ('N#Cc1ccc(NC(=[Se])NC23CC4CC(CC(C4)C2)C3)cc1', 'HTB-54 cells (lung adenocarcinoma)', 0.3);

Now, please, on to the next compound.
Please indicate recorded viability at 50 µM of Cc1ccc(NC(=[Se])Nc2ccc3oc(=O)ccc3c2)cc1 measured with HTB-54 cells (lung adenocarcinoma).
27.3

---

system: HT-29 cells (colon carcinoma); experiment: MTT cell viability assay, HT-29; assay type: cell-based; conditions: Homo sapiens, HT-29; 48 h, MTT, mean ± SD; read-out: IC50 HT-29 (colon)
// pIC50 lookup, one value per entry
Recall that pIC50 is obtained by taking minus log10 of the concentration measured in molar.

INSERT INTO results (chemical_string, value_observed) VALUES
  ('O=c1ccc2cc(NC(=[Se])Nc3ccccc3)ccc2o1', 5.19),
  ('Cc1ccc(NC(=[Se])NC23CC4CC(CC(C4)C2)C3)cc1', 5.25),
  ('Clc1ccc(NC(=[Se])NCc2ccco2)cc1', 5.09),
  ('N#Cc1ccc(NC(=[Se])NC23CC4CC(CC(C4)C2)C3)cc1', 5.38),
  ('N#Cc1ccc(NC(=[Se])NCc2ccco2)cc1', 5.23);

Read the entry COc1ccc(NC(=[Se])NC23CC4CC(CC(C4)C2)C3)cc1 and write its reported pIC50.
5.25

Read the entry Clc1ccc(NC(=[Se])NC23CC4CC(CC(C4)C2)C3)cc1 and write its reported pIC50.
5.09

---

tested on: HTB-54 cells (lung adenocarcinoma); assay: MTT cell viability assay, HTB-54; format: cell-based, human; settings: Homo sapiens; HTB-54, 50 µM, 48 h, MTT; read-out: cell viability, percentage of live cells
measured_attribute: viability at 50 µM (%)
The response must be a number in % with no trailing unit.

Illustrative cases are given below, each with its answer.
INSERT INTO measurements (chemical_string, units_of_measure, value_observed) VALUES
  ('O=c1ccc2cc(NC(=[Se])Nc3ccc(Cl)cc3)ccc2o1', '%', 14),
  ('CCCCCCNC(=[Se])Nc1ccc(Cl)cc1', '%', 57.2),
  ('N#Cc1ccc(NC(=[Se])NCc2nccs2)cc1', '%', 40.1),
  ('N#Cc1ccc(NC(=[Se])NCc2ccco2)cc1', '%', 9.3),
  ('Clc1ccc(NC(=[Se])NC23CC4CC(CC(C4)C2)C3)cc1', '%', 4.4);

Please indicate recorded viability at 50 µM of Clc1ccc(NC(=[Se])NCc2nccs2)cc1 measured with HTB-54 cells (lung adenocarcinoma).
37.2

Please indicate recorded viability at 50 µM of Clc1ccc(NC(=[Se])NCc2ccco2)cc1 measured with HTB-54 cells (lung adenocarcinoma).
27.3

Please indicate recorded viability at 50 µM of Cc1ccc(NC(=[Se])NCc2ccco2)cc1 measured with HTB-54 cells (lung adenocarcinoma).
21.6

Please indicate recorded viability at 50 µM of [Se]=C(NCc1ccco1)Nc1ccccc1 measured with HTB-54 cells (lung adenocarcinoma).
20.5

Please indicate recorded viability at 50 µM of COc1ccc(NC(=[Se])Nc2ccc3oc(=O)ccc3c2)cc1 measured with HTB-54 cells (lung adenocarcinoma).
9.7

---

// viability at 10 µM lookup, one value per entry
tested on: HT-29 cells (colon carcinoma); test: MTT cell viability assay, HT-29; type: cell-based; conditions: Homo sapiens; HT-29, 10 µM, 48 h, MTT; read-out: cell viability, percentage of live cells
The response must be a number in % with no trailing unit.

INSERT INTO results (chemical_string, units_of_measure, value_observed) VALUES
  ('Cc1ccc(NC(=[Se])Nc2ccc3oc(=O)ccc3c2)cc1', '%', 57.1);

Please indicate recorded viability at 10 µM of N#Cc1ccc(NC(=[Se])NCc2nccs2)cc1 measured with HT-29 cells (colon carcinoma).
57.9

Please indicate recorded viability at 10 µM of Clc1ccc(NC(=[Se])NCc2nccs2)cc1 measured with HT-29 cells (colon carcinoma).
77.2

---

tested on: HTB-54 cells (lung adenocarcinoma); test: MTT cell viability assay, HTB-54; format: cell-based, human; settings: Homo sapiens; HTB-54, 50 µM, 48 h, MTT; read-out: cell viability, percentage of live cells
Criterion: viability at 50 µM strictly under 30%. Met: Condition met. Not met: Condition not met.

Some solved entries appear below for comparison.
INSERT INTO assay_data (molecule, group_label) VALUES
  ('Cc1ccc(NC(=[Se])NCc2nccs2)cc1 [Compound 2b]', 'Condition met'),
  ('CCCCCCNC(=[Se])Nc1ccc(C#N)cc1 [Compound 5e, N-hexyl-N´-(4-cyanophenyl)selenourea]', 'Condition met'),
  ('CCCCNC(=[Se])Nc1ccc(Cl)cc1 [Compound 4d]', 'Condition not met');

Problem: For the molecule [Se]=C(NCc1nccs1)Nc1ccccc1 [Compound 2a] , is viability at 50 µM under 30%?
Condition not met

Problem: For the molecule Cc1ccc(NC(=[Se])NC23CC4CC(CC(C4)C2)C3)cc1 [Compound 6b] , is viability at 50 µM under 30%?
Condition met

Problem: For the molecule O=c1ccc2cc(NC(=[Se])Nc3ccccc3)ccc2o1 [Compound 3a] , is viability at 50 µM under 30%?
Condition met
